Catalogue of Kd readings, one per entry.
target entity: T1, human VISTA expressed on the cell surface (HEK293 cells transfected with human VISTA cDNA); native on human … (human, UniProt Q9H7M9 33-311)
T1 construct: whole, on cells; also called PD-1H
T1 sequence (looked up): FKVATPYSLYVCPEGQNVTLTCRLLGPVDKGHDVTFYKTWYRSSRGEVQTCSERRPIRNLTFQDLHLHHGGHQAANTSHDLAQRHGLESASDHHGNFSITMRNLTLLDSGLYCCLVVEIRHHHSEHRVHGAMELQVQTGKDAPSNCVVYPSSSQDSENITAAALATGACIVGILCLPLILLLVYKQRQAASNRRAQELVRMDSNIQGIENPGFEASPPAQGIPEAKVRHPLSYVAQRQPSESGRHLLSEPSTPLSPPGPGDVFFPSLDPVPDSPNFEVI
method description: method not stated; table follows flow cytometry on HEK293 cells transfected with human VISTA
Give the number; nM is assumed, so skip it.

// worked examples, Kd included
binder="humanized anti-VISTA antibody 2D12-HZD3 (antibody, human IgG1, kappa, V domains shown, kappa light chain) VH: EVQLVESGGGLVQPGGSLRLSCAASGIDLSSYAMGWVRQAPGKGLEWVGIISSSGSAFYASWAKGRFTISRDNSKNTLYLQMNSLRAEDTAVYYCARHYAGYTTPYYFNFWGQGTLVTVSS VL: AIQMTQSPSSLSASVGDRVTITCQASENIYSNLAWYQQKPGKAPKVLIYAASDLASGVPSRFSGSGSGTDFTLTISSLQPEDFATYYCQQGFSSSNVDNAFGGGTKVEIKR" recorded_value=1.31
binder="humanized anti-VISTA antibody 29G7-HZD4 (antibody, human IgG1, kappa, V domains shown, kappa light chain) VH: EVQLVESGGGLVQPGGSLRLSCAASGFSLSSYAMGWVRQAPGKGLEWVGIIIVSGNIYYASWAKGRFTISRDNSKNTLYLQMNSLRAEDTAVYYCARGDGYTYGLWGQGTLVTVSS VL: EIVMTQSPATLSLSPGERATLSCQASQSVYSRYLAWYQQKPGQAPRLLIYSASTLASGIPARFSGSGSGTDFTLTISSLQPEDFAVYYCQGTFYIPDYIDGFGGGTKVEIKR" recorded_value=0.295
binder="humanized anti-VISTA antibody 14F1-HZD2 (antibody, human IgG1, kappa, V domains shown, kappa light chain) VH: EVQLLESGGGLVQPGGSLRLSCAASGFSFSSSYYMCWVRQAPGKGLEWVACFYAGFSGSTYYASWAKGRFTISRDNSKNTLYLQMNSLRAEDTAVYYCAKGASTYGYTGYDYAGDYFILWQPGTLVTVSS VL: DIQMTQSPSSVSASVGDRVTITCQASQNIYSNLAWYQQKPGKAPKLLIYAASNLASGVPSRFSGSGSGTDFTLTISSLQPEDFATYYCQSAYYSSSADSYNAFGGGTKVEIKR" recorded_value=2.19
binder="humanized anti-VISTA antibody 14D8-HZD2 (antibody, human IgG1, kappa, V domains shown, kappa light chain) VH: EVQLVESGGGLVQPGGSLRLSCAASGFDLSSAYYMCWVRQAPGKGLEWVGCIATGSGSTYYASWAKGRFTISRDNSKNTLYLQMNSLRAEDTAVYYCARAPYYSYDGYDYALNLWGQGTLVTVSS VL: DIQMTQSPSSVSASVGDRVTITCQASEDIVTYLAWYQQKPGKAPKLLIYAASTLASGVPSRFSGSGSGTDFTLTISSLQPEDFATYYCQQTYNYADTDNAFGGGTKVEIKR" recorded_value=2.2
binder="humanized anti-VISTA antibody 41A11-HZD2 (antibody, human IgG1, kappa, V domains shown, kappa light chain) VH: EVQLLESGGGLVQPGGSLRLSCAASGFSFSSSYYMCWVRQAPGKGLEWVGCFYAGFSGGTYYASWAKGRFTISRDNSKNTLYLQMNSLRAEDTAVYYCAKGANTYGYTGYDYAGDYFTLWGQGTLVTVSS VL: DIQMTQSPSTLSASVGDRVTITCQASQNIGSNLAWYQQKPGKAPKLLIYAASNLESGVPSRFSGSGSGTEFTLTISSLQPDDFATYYCQSAYYSSVDSYNTFGGGTKVEIKR" recorded_value=1.35

We now examine a further binder.
Answer with the recorded Kd of humanized anti-VISTA antibody 3A5-HZD (antibody, human IgG1, kappa, V domains shown, kappa light chain) VH: EVQLVESGGGLVQPGGSLRLSCAASGFSLSSENWICWVRQAPGKGLEWVGCICGANGGSAYHANWVNGRFTISRDNSKNTLYLQMNSLRAEDTAVYYCARAAGVSNAYYFDLWGQGTLVTVSS VL: DIQMTQSPSSVSASVGDRVTITCQASQYIYINLAWYQQKPGKAPKLLIYDASDLASGVPSRFSGSGSGTDFTLTISSLQPEDFATYYCQCTYGGSTYGNAFGGGTKVEIKR only.
0.293
